Values were extracted from ChEMBL document CHEMBL1961873.

Target: Casein kinase I isoform gamma-1 (Homo sapiens);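 also: reported as mean inhibition, part of GSK PKIS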
Settings: at 0.1 µM
METRIC: inhibition (%)

>>> print(df.to_string())
                                         mol      metric  result
 0  CS(=O)(=O)CCNCc1ccoc1-c1ccc2ncnc(Nc3ccc(OCc4ccccc4)cc3)c2c1  inhibition     0.5
 1  Cc1cc(O)cc(C)c1/C=C/c1cncc(C(=O)OC(C)(C)C)c1  inhibition    2.21
 2  CS(=O)(=O)Nc1ccc(-c2cc(-c3ccccc3)cc(C(N)=O)c2N)cc1  inhibition    0.73
 3  COc1ccc2ncn(-c3cc(O[C@H](C)c4ccccc4C(F)(F)F)c(C(N)=O)s3)c2c1  inhibition   -1.06
 4  CCOc1ccc2c(-c3ccnc(Nc4cc(OC)cc(C(F)(F)F)c4)n3)cnn2n1  inhibition   -0.62
 5  O=C(O[C@H]1CN[C@H](C#Cc2cc3ncnc(Nc4ccc5c(ccn5Cc5cc(F)ccc5F)c4)c3s2)C1)N1CCOCC1  inhibition    4.17
 6  COc1cc2c(cc1Nc1nc(Nc3cccc(F)c3C(N)=O)c3cc[nH]c3n1)N(C(=O)CN1CCN(C(C)C)CC1)CC2  inhibition    2.53
 7  O=C(O[C@H]1CN[C@H](C#Cc2cc3ncnc(Nc4ccc5c(cnn5Cc5ccccc5)c4)c3s2)C1)N1CCOCC1  inhibition   -0.81
 8  CS(=O)(=O)CCNCc1ccc(-c2ccc3ncnc(Nc4ccc(OCc5ccccc5)cc4)c3c2)o1  inhibition    2.67
 9  NS(=O)(=O)c1ccc(N/N=C2\C(=O)Nc3ccc(C(=O)NCc4ccncc4)cc32)cc1  inhibition    2.33
10  Cc1c2ccc(N(C)c3ccnc(Nc4cccc(S(N)(=O)=O)c4)n3)cc2nn1C  inhibition    1.31
11    CCn1c(-c2nonc2N)nc2cncc(C(=O)NCCNC)c21  inhibition    4.39
12  OCCCNc1nccc(-c2c(-c3ccc(F)cc3)nn3cc(C(F)(F)F)ccc23)n1  inhibition    1.82
13  Fc1ccc(Nc2nccc(-c3c(-c4ccc(C(F)(F)F)cc4)nn4ncccc34)n2)cc1F  inhibition    3.69
14  N#Cc1ccc2c(-c3ccnc(NC4CC4)n3)c(-c3ccc(F)cc3)nn2c1  inhibition    1.85
15  c1ccc(-c2n[nH]cc2-c2ccnc(-c3ccc(OCCn4ccnc4)cc3)c2)nc1  inhibition    0.69
16  CS(=O)(=O)Nc1ccc(-c2ccc3c(NC(=O)C4CC4)n[nH]c3c2)cc1  inhibition    2.55
17        O=C1Nc2ccccc2/C1=C1\CCc2cc(O)ccc21  inhibition       5
18                 Cn1c(-c2nonc2N)nc2cnccc21  inhibition    2.61
19  NC(=O)c1ccc2c(-c3ccnc(NCCCO)n3)c(-c3ccc(F)cc3)nn2c1  inhibition     7.1
20  CS(=O)(=O)CCNCc1ccc(-c2ccc3ncnc(Nc4ccc(OCc5cccc(C(F)(F)F)c5)cc4)c3c2)o1  inhibition    3.46
21    O=C(Nc1n[nH]c2nnc(-c3cccnc3)cc12)C1CC1  inhibition   -0.63
22  O=C(O[C@H]1CN[C@H](C#Cc2cc3ncnc(Nc4ccc(OCc5cccc(F)c5)c(Cl)c4)c3s2)C1)N1CCOCC1  inhibition    4.56
23  Cc1nnc(-c2cccc(-c3ccc(C(=O)NCC4CC4)cc3)c2)o1  inhibition    4.47
24    c1cnn2ncc(-c3ccnc(NCCCN4CCOCC4)n3)c2c1  inhibition    3.57
25  NS(=O)(=O)c1cccc(N/C=C2\C(=O)Nc3ccccc32)c1  inhibition    4.71
26  CCS(=O)(=O)c1ccc(OC)c(Nc2ncc(-c3cccc(C(C)=O)c3)o2)c1  inhibition    2.26
27     COc1cccc(Nc2nccc(-c3cnn4ncccc34)n2)c1  inhibition    2.61
28  NS(=O)(=O)c1ccc(N/N=C2\C(=O)Nc3cccc(CCc4ccncc4)c32)cc1  inhibition    0.44
29    Cc1ccc(-c2cc3c(NC(=O)C4CC4)ncnc3o2)cc1  inhibition    3.74
30  CC1(C)CC(n2cnc(-c3ccc(F)cc3)c2-c2ccnc(N)n2)CC(C)(C)N1  inhibition    0.31
31  COC(=O)Nc1nc2ccc(Oc3ccc(NC(=O)Nc4cc(C(F)(F)F)ccc4F)cc3)cc2s1  inhibition    -0.2
32           CNC(=O)c1cncc(/C=C/c2ccccc2C)c1  inhibition    2.73
33  CNC(=O)c1ncccc1Nc1nc(Nc2cc3c(cc2OC)CCCN3C(=O)CN(C)C)nc2[nH]ccc12  inhibition    4.96
34  COc1cccc(-n2ncc3c(N/N=C/c4ccc(C(=O)NCCN(C)C)cc4)ncnc32)c1  inhibition    2.73
35  CN(C)CCNC(=O)Nc1ccc(N(C)c2ccnc(Nc3ccc(CS(C)(=O)=O)cc3)n2)cc1  inhibition    3.74
36  CNC(=O)c1sc(-n2cnc3cc(OC)c(OC)cc32)cc1OCc1ccccc1C(F)(F)F  inhibition    3.33
37  CCS(=O)(=O)c1ccc(OC)c(Nc2ncc(-c3cccc(F)c3)o2)c1  inhibition    4.64
38  CCCNc1cccc(-n2ncc3c(N/N=C/c4ccncc4)ncnc32)c1  inhibition    0.84
39         COc1ccc(Nc2ncc(-c3ccccc3)o2)cc1OC  inhibition    0.83
